System: HCT116
MEASUREMENT DESCRIPTION: Cell profiling, HCT116 tumor cell line
Type: cell-based
CONDITION PARAMETERS: Homo sapiens, HCT-116; Tumor cell line HCT116, origin Colon
ENDPOINT LABEL: IC50 (nM)
Give the quantity in nM, number only.

Recorded IC50 for COC(=O)c1coc(-c2nc3oc2C24c5ccccc5N[C@H]2Oc2ccc(cc24)C[C@H](NC(=O)[C@@H](O)C(C)C)C(=O)N[C@H]3C(C)C)n1 (stereo partly shown) , please?
731

----------
System: A2058 cells
MEASUREMENT DESCRIPTION: Cell viability assay (CELL-TITER-GLO) in A2058 cells
Assay type: cell-based
CONDITION PARAMETERS: Homo sapiens, A2058, 48 h, A2058 cells, 48 hour treatment, cell viability; read-out: IC50 (μM) A2058
ENDPOINT LABEL: IC50

Example results:
- MOLECULE: "COC(=O)c1coc(-c2nc3oc2C24c5ccccc5N[C@H]2Oc2ccc(cc24)C[C@H](NC(=O)[C@@H](O)C(C)(C)C)C(=O)N[C@H]3C(C)C)n1 (some centres unmarked)"
  IC50: "0.058 µM"
- MOLECULE: "CC(C)[C@H](O)C(=O)N[C@H]1Cc2ccc3c(c2)C2(C4=C(C(=O)N5CCN=C5c5ccccc5)N=C(O4)[C@H](C(C)C)NC1=O)c1ccccc1N[C@H]2O3 (some centres unmarked)"
  IC50: "> 1 µM"
- MOLECULE: "CC(C)[C@H](O)C(=O)NC1Cc2ccc3c(c2)C2(C4=C(c5ncc(-c6ccccc6)o5)N=C(O4)[C@H](C(C)C)NC1=O)c1ccccc1N[C@H]2O3 (some centres unmarked)"
  IC50: "> 1 µM"

Recorded IC50 for COC(=O)c1nc2oc1[C@@]13c4ccccc4NC1Oc1ccc(cc13)C[C@H](NC(=O)[C@@H](O)C(C)C)C(=O)N[C@H]2C(C)C (some centres unmarked) , please?
> 1 µM

Recorded IC50 for COC(=O)[C@H]1COC(c2nc3oc2C24c5ccccc5N[C@H]2Oc2ccc(cc24)C[C@H](NC(=O)[C@@H](O)C(C)C)C(=O)N[C@H]3C(C)C)=N1 (some centres unmarked) , please?
0.329 µM

----------
The compounds listed here are annotated with their IC50.
System: A2058 cells
MEASUREMENT DESCRIPTION: Cell viability assay (CELL-TITER-GLO) in A2058 cells
Type: cell-based
CONDITION PARAMETERS: Homo sapiens, A2058, 48 h, A2058 cells, 48 hour treatment, cell viability; read-out: IC50 (μM) A2058
Method: Cell viability assays were run using standard protocols known to those of skill in art. Cells were plated in 96 well plates at the density of 3,000-10,000 cells per well. Twenty four hours later, cells were treated with increasing concentration of test compounds (1 nM to 1 μM). After another 48 hour, cell survival was measured using CELL-TITER-GLO® reagent (Promega) following the protocol provided by the manufacture. […]

- COMPOUND: "[H][C@@]1(C(=O)N[C@H]2Cc3ccc4c(c3)C3(C5=C(c6nc(C(=O)OC)co6)N=C(O5)[C@H](C(C)C)NC2=O)c2ccccc2N[C@H]3O4)CCCO1 (stereo partly drawn)"
  TESTED TARGET: "A2058 cells"
  IC50: "0.075 µM"
- COMPOUND: "[H][C@]1(C(=O)N[C@H]2Cc3ccc4c(c3)C3(C5=C(C(=O)OC)N=C(O5)[C@H](C(C)C)NC2=O)c2ccccc2N[C@H]3O4)CCCO1 (stereo partly drawn)"
  TESTED TARGET: "A2058 cells"
  IC50: "> 1 µM"

Pending compound:
Recorded IC50 for CC(C)[C@H](O)C(=O)N[C@H]1Cc2ccc3c(c2)C2(C4=C(C(=O)NCC5CCCCC5)N=C(O4)[C@H](C(C)C)NC1=O)c1ccccc1N[C@H]2O3 (stereo partly drawn) , please?
> 1 µM
